B1: Pistol ribozyme (parent)
chain: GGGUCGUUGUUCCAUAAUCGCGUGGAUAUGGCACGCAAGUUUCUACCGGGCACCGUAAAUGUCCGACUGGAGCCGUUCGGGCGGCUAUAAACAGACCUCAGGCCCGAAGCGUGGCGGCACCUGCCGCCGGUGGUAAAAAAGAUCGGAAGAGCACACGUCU

- Variants of: B1
- measurementDescription: aptazyme ON/OFF ratio, guanine; higher = stronger switching; co-transcriptional cleavage with and without guanine
measuredEndpoint: aptazyme ON/OFF ratio

>>> reading("U8C G9U U11A C12A C13A")
1.26
>>> reading("U7G U8A G9C U10A U11A C13G")
1.04
>>> reading("U8C U10G U11A C13U")
1.18
>>> reading("U7G U8A G9U U10G C12A C13A")
1.11
>>> reading("U7C U8C G9A U10A C12U")
1.69
>>> reading("U8G U10A U11G C12G")
1.2
>>> reading("U7G U8G G9A U10A C13G")
1.17
>>> reading("U7C U8G G9C U11G C12U")
1.23
>>> reading("U7G G9A U10C C12A C13G")
1.13
>>> reading("U11C C13A")
1.2
>>> reading("U7A U8A G9U U10A U11C C13A")
1.08
>>> reading("U7G U8A U10C U11C C12A C13G")
1.16
>>> reading("U7A G9C C12G")
1.08
>>> reading("U7A G9A U10A C13G")
1.09
>>> reading("U7A U8G G9A U11A C12U")
1.38
>>> reading("U7C U8A G9U U11C C12G")
1.14
>>> reading("U7A U8A G9U U10A C13U")
1.24
>>> reading("U7A U8A")
2.94
>>> reading("U7C G9U C12A C13G")
1.08
>>> reading("U7G U8A U10A U11G C13A")
1.23
>>> reading("U7A U8C G9U U10A U11G C13A")
1.17
>>> reading("U7A U8A U10C U11C C12A C13U")
1.12

Source of measurements: the RNAGym collection of RNA variant scans (doi:10.1021/acssynbio.7b00057)
